Target: recombinant human cytosolic PEPCK (GST-PEPCK) (Homo sapiens, UniProt P35558)
Construct: made in house; host or cells: E. coli
Sequence (P35558 whole entry): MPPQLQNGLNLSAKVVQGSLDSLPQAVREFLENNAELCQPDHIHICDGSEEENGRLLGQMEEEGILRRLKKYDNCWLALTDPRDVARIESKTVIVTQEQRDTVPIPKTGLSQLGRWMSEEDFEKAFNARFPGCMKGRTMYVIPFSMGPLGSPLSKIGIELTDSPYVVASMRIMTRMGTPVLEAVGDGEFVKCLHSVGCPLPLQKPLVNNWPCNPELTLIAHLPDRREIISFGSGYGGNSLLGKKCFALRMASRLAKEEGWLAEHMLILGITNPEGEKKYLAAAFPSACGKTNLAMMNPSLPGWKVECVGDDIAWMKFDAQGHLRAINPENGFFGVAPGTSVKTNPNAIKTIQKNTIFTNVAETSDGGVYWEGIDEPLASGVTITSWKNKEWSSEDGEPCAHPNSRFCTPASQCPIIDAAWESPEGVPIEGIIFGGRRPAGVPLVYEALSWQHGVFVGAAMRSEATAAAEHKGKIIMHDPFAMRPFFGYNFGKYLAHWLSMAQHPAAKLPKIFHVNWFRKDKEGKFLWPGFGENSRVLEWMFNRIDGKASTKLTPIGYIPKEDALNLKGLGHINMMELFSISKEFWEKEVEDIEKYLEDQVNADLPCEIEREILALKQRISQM
Experiment: PEPCK enzyme assay (coupled to pyruvate kinase / lactate dehydrogenase, absorbance at 340 nm)
Type: biochemical
Details: in vitro PEPCK enzymatic assay; GTP at 3 fold and OAA at 10 fold Km; final DMSO 10%; room temperature, twenty minutes
Protocol: E. coli cells expressing GST-PEPCK were suspended in 5 volumes of lysis buffer (50 mM Tris-hydroxymethyl aminomethyl (TRIS), 150 mM sodium chloride (NaCl), 10 mM ethylene-diametetraacetic acid (EDTA), 5 mM dithiothreitol(DTT), 1% Nonidet P-40, pH 7.4) in the presence of protease inhibitors, incubated with lysozyme at 200 micrograms/ml for 30 min. at room temperature, and sonicated 4×30 seconds at 4 degrees C. […]
pIC50: −log10 of the molar value.
Measured quantity: pIC50

>>> df
                         structure_notation  measured_quantity  test_value
0  COc1cccc(S(=O)(=O)Nc2ccc(Cc3nc4c([nH]3)c(=O)n(Cc3ccccc3F)c(=O)n4CC3CC3)cc2)c1              pIC50        5.92
1  Cc1noc(C)c1S(=O)(=O)Nc1ccc(Cc2nc3c([nH]2)c(=O)n(Cc2ccccc2F)c(=O)n3CC2CC2)cc1              pIC50        6.10

[I] Cc1nn(C)cc1S(=O)(=O)N(C)c1ccc(Cc2nc3c([nH]2)c(=O)n(Cc2ccccc2F)c(=O)n3CC2CC2)cc1
[II] CCCCn1c(=O)n(Cc2ccccc2F)c(=O)c2[nH]c(Cc3ccc(NS(=O)(=O)c4c(C)nn(C)c4Cl)cn3)nc21
Query string: Returns the identifier with the smallest measured pIC50 among I and II . Returns: label corresponding to the selected item.
Result string: I
(I: 5.84, II: 6.06)
